The entries below come with measured GI50 values attached.
- Test system: MOLT-4
- Test Protocol: NCI tumour cell line growth inhibition, 48 h
Activity calls are given as the source filed them. Cut-off read from the data, not from the text of the source: active = GI50 up to about 1.1 µM and inactive = higher.

Compound	Experimental Value
O=C1C(Cl)C(c2cccc([N+](=O)[O-])c2)N1n1cnc2ccccc2c1=O (stereo unspecified)	35.1 µM (inactive)
COC(=O)C(=O)c1c2ccccc2n2ccc3c4ccccc4[nH]c3c12	> 10 µM (inactive)
CNC1=Nc2ccccc2C(=O)N2CSCC12 (stereo unspecified)	> 100 µM (inactive)
Cc1ccn2c(=O)cc(-c3ccccc3)nc2c1	> 100 µM (inactive)
Cc1ccc(-c2n[nH]c(=O)n2/N=C\c2ccccc2)cc1	> 79.6 µM (inactive)

# next compound below
// GI50 lookup, compound = COC1[C@H](NC(=O)OC(C)(C)C)C(=O)N1Cc1ccccc1 (stereo partly specified) , result: > 100 µM (inactive)

###

Measured GI50 of individual entries
- System: KM12
- Test Protocol: NCI tumour cell line growth inhibition, 48 h
Active and inactive are the calls of the source. Cut-off read from the data, not from the text of the source: active = GI50 up to about 1.1 µM and inactive = higher.

Molecule	Experimental Value
CCOC(=O)C#Cc1cccc(C#CC(=O)OCC)c1	6.65 µM (inactive)

Tested system KM12; GI50 recorded for Cc1ccc(N2C(=O)C3c4[nH]c5ccccc5c4C4CCC(C(C)(C)C)CC4C3C2=O)cc1 (stereo unspecified) was 17.5 µM (inactive)

Bench note, KM12: O=c1nc(N2CCCCC2)sc2[nH]c3ccccc3c12 , GI50 reads > 100 µM (inactive)

So the reported GI50 for COC1=CC(=O)C2=C(C1=O)[C@H]1CC[C@]3(C)C(=O)CC[C@H]3[C@@H]1CC2 , on KM12, turned out to be 36.8 µM (inactive)

Tested on KM12: CC(C)NC(C)C(C)c1ccccc1 (stereo unspecified) . Observed GI50: > 100 µM (inactive)

###

- Tested on: EKVX
- Test Protocol: NCI tumour cell line growth inhibition, 48 h
The source made the active and inactive calls. Rule as the data show it: active = GI50 up to about 1.1 µM and inactive = higher.
Respond with a class label; see active, inactive

Compound	Qualitative Label
COC(=O)/C(C#N)=C1\CCC(O)N1 (stereo not given)	inactive
O=C(Nc1nc2ncn(CCO)c2c(=S)[nH]1)c1ccccc1	inactive
CC(=O)C1=C(O)C2C3c4c[nH]c5cccc(c45)CC3C(C)(C)N2C1=O (stereo not given)	inactive
CCOC(=O)C(OCC1CC=CCC1)Sc1ccccc1 (stereo not given)	inactive
[O-][N+]1=C2CCC/C(=N/O)C2(O)C2CCCCC21N1CCOCC1 (stereo not given)	inactive

Challenge: Outcome? O=C(CCC(=O)Nc1ccc(Cl)cc1)CC(=O)c1ccc2ccccc2c1
Response given: inactive

Challenge: I would be grateful if you could indicate the recorded call for CCCCCCCCCC[C@@H](O)[C@@H]1CC[C@H]([C@H]2CC[C@@H]([C@@H](O)CCCCCCCCCC[C@H]3CC(CC(C)=O)C(=O)O3)O2)O1 (stereo not given in full) .
Response given: inactive

Challenge: Write down the call the test reported for this compound. Item: C=CCSC[C@H](NC(=O)COc1ccccc1)C(=O)NC(C(=O)OCc1ccc([N+](=O)[O-])cc1)=C(C)C
Response given: inactive

Challenge: I would be grateful if you could indicate the recorded call for COc1cc2[nH]c(=O)c3cc(C)cc4c(Cl)nc(c1OC)c2c43 .
Response given: inactive

Challenge: Call for entry COC1CCC(OS(C)(=O)=O)C(C)O1 (stereo not given) :
Response given: inactive
